B1: ZNF8 (parent)
chain: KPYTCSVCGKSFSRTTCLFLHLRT

variants of: B1; assay: protein stability index of a GFP-peptide fusion (GPS, HEK-293T) (PSI 1-6); higher = more stable; conditions: c terminus: a fixed tail appended;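 further: lentivirally expressed fusions sorted by FACS into six bins by GFP to DsRed ratio, PSI derived from sequencing read proportions per bin multiplied by bin number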
PROPERTY_NAME: protein stability index

[[record]]
variant_description = "L22F"
recorded_result = 1.82

[[record]]
variant_description = "H21I"
recorded_result = 1.59

[[record]]
variant_description = "R14A"
recorded_result = 2.39

[[record]]
variant_description = "T16E"
recorded_result = 2.25

[[record]]
variant_description = "L20M"
recorded_result = 1.74

[[record]]
variant_description = "S13G"
recorded_result = 1.62

[[record]]
variant_description = "K1R"
recorded_result = 2.26

[[record]]
variant_description = "G9A"
recorded_result = 2.76

[[record]]
variant_description = "L20S"
recorded_result = 2.17

[[record]]
variant_description = "S13F"
recorded_result = 1.82

[[record]]
variant_description = "R14M"
recorded_result = 1.68

[[record]]
variant_description = "V7W"
recorded_result = 1.85

[[record]]
variant_description = "L22E"
recorded_result = 2.31

[[record]]
variant_description = "F19C"
recorded_result = 3.11

[[record]]
variant_description = "T16A"
recorded_result = 2.16

[[record]]
variant_description = "C5E"
recorded_result = 3.3

[[record]]
variant_description = "V7K"
recorded_result = 1.75

[[record]]
variant_description = "T24Q"
recorded_result = 1.9

[[record]]
variant_description = "C5A"
recorded_result = 1.97

[[record]]
variant_description = "F19A"
recorded_result = 1.98

[[record]]
variant_description = "P2M"
recorded_result = 1.98

[[record]]
variant_description = "C5G"
recorded_result = 3.6

